Cited source: patent US20060252130A1

# tested-target: T1, PyVP1-WW150 (mouse polyoma virus; Mus musculus …)
# T1 construct: WW domain inserted between VP1 positions 148 and 149; Soluble pentamer after intein cleavage; also called PyVP1-WW150 variant; PyVP1-WW150 protein
# test-method-notes: SPR (Biacore X), peptide on CM5 chip; summary of the three analyses of example 2
assay-metric: Kd (nM)
The response must be a number in nM with no trailing unit.

Kd recorded for this binder, CSGPPPPPPPPLP (also called CSGP8LP; proline peptide) [synthetic proline-rich peptide Cys-Ser-Gly-Pro-Pro-Pro-Pro-Pro-Pro-Pro-Pro-Leu-Pro] , is 20
